# Test system: Plasmodium falciparum
# Test Details: Displacement of [3H]farnesylpyrophosphate from Plasmodium falciparum protein farnesyltransferase at 0.5 nM by scintillation proximity assay
Measured Parameter: inhibition (%)
Please reply with the bare figure in % and do not write the unit itself.

Use these answered entries as a reference point.
Task: Query (compound): Cn1cnc(S(=O)(=O)N(CC(=O)OC(C)(C)C)C2Cc3cc(C#N)ccc3N(Cc3cncn3C)C2=O)c1 (centres undefined) ; field requested: inhibition
Output: 62

Task: Same question for C=C(C)CN(C1Cc2cc(C#N)ccc2N(Cc2cncn2C)C1=O)S(=O)(=O)c1cn(C)cn1 (centres undefined) please.
Output: 4

Task: Check Cn1cnc(S(=O)(=O)NC2Cc3cc(C#N)ccc3N(Cc3cncn3C)C2=O)c1 (centres undefined) too.
Output: 0

Below: the item to evaluate.
Task: GET /values?readout=inhibition&item= Cn1cnc(S(=O)(=O)N(Cc2ccc(C(F)(F)F)o2)C2Cc3cc(C#N)ccc3N(Cc3cncn3C)C2=O)c1 (centres undefined)
Output: 1
